# Test system: Periplaneta americana
# protocol_text: Toxic effect in Periplaneta americana (American cockroach) assessed as paralyzed insects after 24 hr of abdomen compound injection by insecticidal assay
# Assay type: functional
Listing: log(1/MLD) of selected compounds
# output: bare number, no unit

Below, 10 compounds whose answers are already recorded.
INSERT INTO assay_data (compound, quantitative_result) VALUES
  ('O=[N+]([O-])/C=C1\CCCN1Cc1ccc(Cl)nc1', 10.44),
  ('O=[N+]([O-])/N=c1\sccn1Cc1ccc(Cl)nc1', 10.25),
  ('O=[N+]([O-])/N=C1\NCCN1Cc1cnc(Cl)s1', 9.62),
  ('CN1CCN(Cc2ccc(Cl)nc2)/C1=C/[N+](=O)[O-]', 8.07),
  ('O=[N+]([O-])/N=c1\[nH]ccn1Cc1cnc(Cl)s1', 8.82),
  ('O=[N+]([O-])/C=C1\NCCN1Cc1cnc(Cl)s1', 10.24),
  ('O=[N+]([O-])/N=c1\ccccn1Cc1ccc(Cl)nc1', 9.99),
  ('CN1CCN(Cc2ccc(Cl)nc2)/C1=N/[N+](=O)[O-]', 8.62),
  ('O=[N+]([O-])/N=c1\sccn1Cc1cnc(Cl)s1', 8.85),
  ('O=[N+]([O-])Nc1nccn1Cc1ccc(Cl)nc1 [DEHYDROIMIDACLOPRID]', 8.72);

Incoming: Find the recorded log(1/MLD) belonging to O=[N+]([O-])/N=C1\NCCCN1Cc1ccc(Cl)nc1 and report it.
Outgoing: 10.12
